molecular target: Ubiquitin-activating enzyme e1, putative (Leishmania donovani (strain BPK282A1)); assay: Leishmania donovani Ubiquitin Activating Enzyme (LdE1); assay type: functional; set-up: scale not given: direction of the effect not stated beside the values; details: 30 µM
Entries with a potency or affinity are not part of this list.
QUANTITY MEASURED: Percent Effect (%)

>>> reported("CC(C(=O)N1CCCC1)N1CCC(c2nccn2Cc2cscn2)CC1 (configuration not stated)")
0
>>> reported("O=C1CCC2(CCN(Cc3ccc(F)cc3)CC2)N1Cc1ccccc1")
3.9
>>> reported("Cc1cncc(C2CCCN(C(=O)c3c[nH]c(=O)[nH]c3=O)C2)n1 (configuration not stated)")
9.33
>>> reported("O=C(c1cc(Cl)c2c(c1)OCCO2)N1CCCC(n2cncn2)C1 (configuration not stated)")
-5.33
>>> reported("CNC(=O)c1ccc(CN(C(=O)c2scnc2C)C2CC2)cc1")
-7.69
>>> reported("Cc1cc(OCC(=O)N2CCCC(c3ccn[nH]3)C2)no1 (configuration not stated)")
5.33
>>> reported("Cc1ccc(C(=O)N2C[C@H]3CCC[C@@]3(COCc3cccnc3)C2)s1")
6.49
>>> reported("CCCN1CCCn2nc(CNS(=O)(=O)c3cccc(C#N)c3)cc2C1")
8.11
>>> reported("Cc1ncc(-c2ccnc(N3CCN(C)CC3)n2)c(-c2cccnc2)n1")
8
>>> reported("CCOC(=O)N1CCN(C(=O)c2sc(-c3ccc(F)cc3)nc2C)CC1")
5.41
>>> reported("Cc1ccc(NC(=O)C2CSCN2C(=O)c2cnn(C)c2)c(C)c1 (configuration not stated)")
5.13
>>> reported("CC(=O)N1CCC(c2cc(C(F)(F)F)n3ccnc3n2)CC1")
9.33
>>> reported("NC(=O)C1(CCCc2cccnc2)CCCN(c2ncccn2)C1 (configuration not stated)")
4
>>> reported("O=c1c2ccccc2nc2n1C(CSc1ccc(Cl)cc1Cl)CN2 (configuration not stated)")
19.5
>>> reported("COc1ccccc1CCN(C)C(=O)NC(C)c1nncn1C (configuration not stated)")
10.7
>>> reported("CC(C)CN1CCC2(CCN(Cc3ccsc3)CC2)C1=O")
11.7
>>> reported("Cn1ccnc1CN1CCOCC(Cc2ccccn2)C1 (configuration not stated)")
6.67
>>> reported("CCn1cc2c(n1)C(COC)CN(C(=O)COc1ccccc1C)C2 (configuration not stated)")
-3.9
>>> reported("CN(C)CC(=O)N1CCC2(CC1)COC(COc1ccccn1)C2 (configuration not stated)")
6.49
>>> reported("CC(C)NC(=O)C(c1ccccc1)N1CCn2c(nnc2C2CC2)C1 (configuration not stated)")
15.4
>>> reported("CCc1nc(C2CCCN2C(=O)CCCn2cccn2)no1 (configuration not stated)")
5.2
>>> reported("O=C(c1ncccn1)N1C[C@H]2CCC[C@@]2(COCc2cccnc2)C1")
3.9
>>> reported("CC(C)NC(=O)C1CN(C(=O)N2CCCC2)CC12CCOCC2 (configuration not stated)")
-3.9
>>> reported("COc1ccc(CN2C[C@@H]3COC[C@]3(CN(C)C)C2)cc1")
-1.3
>>> reported("CCN1CCN(C(=O)NCCOc2ccc3c(c2)OCO3)CC1")
20.8
>>> reported("CNC(=O)c1cc(S(=O)(=O)C(C)C)cs1")
19.5
>>> reported("COCCN1CCN(Cc2ccc(F)c(C)c2)[C@H]2CS(=O)(=O)C[C@H]21")
10.8
>>> reported("CCCC(C)C(=O)N1CCC(n2cccc2C(=O)OC)CC1 (configuration not stated)")
10.4
>>> reported("O=C(NCCOc1ccc(Cl)cc1)N1CCS(=O)(=O)CC1")
5.13
>>> reported("Cc1nc(N2CCCC2)nc2c1CN(C(=O)N1CCOCC1)CC2")
14.3
>>> reported("CN(CC1CCCCC1)C(=O)c1ccc(-n2ncc(C#N)c2N)cc1")
2.6
>>> reported("COc1ccc(CNCc2ccnc(N3CCCCC3)c2)cc1OC")
-2.56
>>> reported("CC(C)c1nc(C2CCCN2CC(=O)Nc2nncs2)no1 (configuration not stated)")
16
>>> reported("CN(Cc1noc(C2CC2)n1)C1CCN(Cc2ccncc2)C1 (configuration not stated)")
20.5
>>> reported("CN(C(=O)CN1CCOC(Cn2cccn2)C1)c1nccs1 (configuration not stated)")
18.2
>>> reported("Fc1cnc(N2CCOCC3(CCCN(c4nncs4)C3)C2)nc1 (configuration not stated)")
6.49
>>> reported("NC(=O)N1CCC2(CC1)CN(Cc1cccnc1)C(=O)CO2")
11.7
>>> reported("NC[C@H]1CC[C@H](C(NC(=O)c2ccccc2)c2ccccn2)CC1 (some centres not stated)")
12
>>> reported("Cc1cc(C)cc(OCC(=O)NC2CCN(S(C)(=O)=O)CC2)c1")
13
>>> reported("CC[C@@H]1N(Cc2ccsc2)CCC[C@]12CCC(=O)N2CCOC")
19.5
>>> reported("Cc1[nH]c2ccccc2c1-c1ccnc(NC[C@H](O)CO)n1")
5.33
>>> reported("CN(Cc1ccccc1)C(=O)c1nc(S(C)(=O)=O)n2ccccc12")
-92.3
>>> reported("CN(C)CC1CN(Cc2nnc(-c3ccccc3Cl)o2)CCO1 (configuration not stated)")
13.3
>>> reported("COc1ccc2c(c1)OCC(CNC(=O)c1ccncc1)C2 (configuration not stated)")
13.5
>>> reported("O=C(N1CCC(Nc2cccnn2)CC1)C1(c2ccc(F)cc2)CC1")
7.79
>>> reported("Cc1ccoc1-c1nnc(CN2CCCC(Cn3cncn3)C2)o1 (configuration not stated)")
0
>>> reported("CN(CC(=O)N1CCCN(Cc2cscn2)CC1)c1cnccn1")
-18.2
